B1: glmS ribozyme (parent)
chain: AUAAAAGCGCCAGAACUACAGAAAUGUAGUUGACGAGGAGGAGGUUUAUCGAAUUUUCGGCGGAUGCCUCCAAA

Variants of: B1
Assay: self-cleavage kobs at 2500 uM GlcN6P; higher = faster cleavage; RNA array
Settings: with glucosamine-6-phosphate
Variants at the floor of the assay were thinned out.
Reported self-cleavage kobs at 2500 uM GlcN6P values are given for each entry in this list.
Express the result in s⁻¹ but write the number alone.

Field: example entries. Status: answers known.
INSERT INTO assay_data (changes, value_measured) VALUES
  ('G44A C67G', 0.000355),
  ('U31G G32C G66A', 0.000109),
  ('U47A U55C', 0.0089),
  ('G41U G66U', '5.12e-05'),
  ('C10U C50G C68U C71A', 0.000111),
  ('A15G U46G', 0.00538),
  ('A52U U69A', '7.38e-05'),
  ('G29C A64G G66U', '4.43e-05'),
  ('G29A G32C', '5.01e-05'),
  ('A12U G43A', 0.000139);

Query string: Give self-cleavage kobs at 2500 uM GlcN6P for A39U G41U U56G
Result string: 0.000106

Query string: Using the record for A6U A15G A53G , state its measured self-cleavage kobs at 2500 uM GlcN6P.
Result string: 0.000262

Query string: Please give measured self-cleavage kobs at 2500 uM GlcN6P of the following entry: C58G C68A U69G
Result string: 5.37e-05

Query string: Note self-cleavage kobs at 2500 uM GlcN6P for the variant shown: U31A U47C U56C
Result string: 0.000498

Query string: Please supply the value of reported self-cleavage kobs at 2500 uM GlcN6P for the item "U31A"
Result string: 0.00997

Query string: Fill in self-cleavage kobs at 2500 uM GlcN6P for record A12C G13A
Result string: 0.000302

Query string: Return the recorded self-cleavage kobs at 2500 uM GlcN6P value; entry: A14G U54A C58A C68U
Result string: 0.000131

Query string: State, in one line, measured self-cleavage kobs at 2500 uM GlcN6P of G51U C68G
Result string: 4.27e-05

Query string: In one line, give reported self-cleavage kobs at 2500 uM GlcN6P of the entry U54A C67A C68U .
Result string: 9e-05
